target: Flt-1 (Homo sapiens, UniProt P17948)
Sequence (P17948 27-1338, species assumed): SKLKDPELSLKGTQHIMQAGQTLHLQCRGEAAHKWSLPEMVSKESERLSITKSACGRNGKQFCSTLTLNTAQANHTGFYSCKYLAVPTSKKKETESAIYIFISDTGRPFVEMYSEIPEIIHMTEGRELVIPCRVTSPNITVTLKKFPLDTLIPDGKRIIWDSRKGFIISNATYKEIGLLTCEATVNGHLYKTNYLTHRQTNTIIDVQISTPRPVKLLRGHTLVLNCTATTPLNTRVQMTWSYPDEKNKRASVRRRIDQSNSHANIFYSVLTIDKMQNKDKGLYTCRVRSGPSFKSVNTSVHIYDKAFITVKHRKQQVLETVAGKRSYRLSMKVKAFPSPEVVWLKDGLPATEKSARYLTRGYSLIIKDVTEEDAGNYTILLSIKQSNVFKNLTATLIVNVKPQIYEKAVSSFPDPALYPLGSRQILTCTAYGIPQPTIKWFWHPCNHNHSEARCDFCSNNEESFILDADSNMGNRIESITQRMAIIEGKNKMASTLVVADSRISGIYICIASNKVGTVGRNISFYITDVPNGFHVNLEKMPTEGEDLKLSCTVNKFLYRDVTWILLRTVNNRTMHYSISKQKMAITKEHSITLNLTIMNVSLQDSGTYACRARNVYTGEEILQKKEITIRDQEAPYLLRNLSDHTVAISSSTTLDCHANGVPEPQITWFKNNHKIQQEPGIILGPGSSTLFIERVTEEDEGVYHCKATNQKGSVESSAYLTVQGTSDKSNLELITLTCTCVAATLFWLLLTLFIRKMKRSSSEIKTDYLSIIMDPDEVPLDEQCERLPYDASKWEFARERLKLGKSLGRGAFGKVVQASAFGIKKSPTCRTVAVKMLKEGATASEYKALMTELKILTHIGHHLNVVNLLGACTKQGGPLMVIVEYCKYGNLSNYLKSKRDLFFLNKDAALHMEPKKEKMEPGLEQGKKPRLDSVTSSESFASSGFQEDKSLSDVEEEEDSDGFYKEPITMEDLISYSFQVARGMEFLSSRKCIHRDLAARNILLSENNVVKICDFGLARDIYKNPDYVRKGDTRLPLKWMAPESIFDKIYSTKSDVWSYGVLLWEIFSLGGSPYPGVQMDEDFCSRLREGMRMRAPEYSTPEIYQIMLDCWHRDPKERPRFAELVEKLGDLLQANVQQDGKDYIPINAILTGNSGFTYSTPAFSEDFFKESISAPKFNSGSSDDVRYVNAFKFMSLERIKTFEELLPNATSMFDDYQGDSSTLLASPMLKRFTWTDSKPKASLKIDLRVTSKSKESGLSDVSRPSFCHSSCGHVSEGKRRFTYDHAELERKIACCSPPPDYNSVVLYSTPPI
ENDPOINT_NAME: IC50

>>> df
                                smiles_data  endpoint_name         observed
0  COc1cc(Nc2ncnc(Nc3cccc(C)c3)n2)cc(OC)c1OC           IC50        > 12.2 µM
1  COc1cc(Nc2ncnc(-c3c(O)[nH]c4ccc(Cl)cc34)n2)cc(OC)c1OC           IC50       < 0.935 µM
2  COc1ccc(Nc2ncnc(Nc3cc(OC)c(OC)c(OC)c3)n2)cc1OC           IC50       < 0.968 µM
3   Cc1cccc(Nc2ncnc(Nc3ccc4[nH]ncc4c3)n2)c1           IC50  1.26 to 7.56 µM
4  COc1cc(Nc2ncnc(-n3c(Nc4ccccc4C)nc4ccccc43)n2)cc(OC)c1OC           IC50        > 9.31 µM

###

target: Kdr (Homo sapiens); construct: Kinases are expressed as either kinase domains or full length constructs; made in house; experiment: Kinase inhibition assay (33P transfer), Kdr; assay type: biochemical; conditions: read-out: KDR-1
Sequence (P35968 20-1356, species assumed): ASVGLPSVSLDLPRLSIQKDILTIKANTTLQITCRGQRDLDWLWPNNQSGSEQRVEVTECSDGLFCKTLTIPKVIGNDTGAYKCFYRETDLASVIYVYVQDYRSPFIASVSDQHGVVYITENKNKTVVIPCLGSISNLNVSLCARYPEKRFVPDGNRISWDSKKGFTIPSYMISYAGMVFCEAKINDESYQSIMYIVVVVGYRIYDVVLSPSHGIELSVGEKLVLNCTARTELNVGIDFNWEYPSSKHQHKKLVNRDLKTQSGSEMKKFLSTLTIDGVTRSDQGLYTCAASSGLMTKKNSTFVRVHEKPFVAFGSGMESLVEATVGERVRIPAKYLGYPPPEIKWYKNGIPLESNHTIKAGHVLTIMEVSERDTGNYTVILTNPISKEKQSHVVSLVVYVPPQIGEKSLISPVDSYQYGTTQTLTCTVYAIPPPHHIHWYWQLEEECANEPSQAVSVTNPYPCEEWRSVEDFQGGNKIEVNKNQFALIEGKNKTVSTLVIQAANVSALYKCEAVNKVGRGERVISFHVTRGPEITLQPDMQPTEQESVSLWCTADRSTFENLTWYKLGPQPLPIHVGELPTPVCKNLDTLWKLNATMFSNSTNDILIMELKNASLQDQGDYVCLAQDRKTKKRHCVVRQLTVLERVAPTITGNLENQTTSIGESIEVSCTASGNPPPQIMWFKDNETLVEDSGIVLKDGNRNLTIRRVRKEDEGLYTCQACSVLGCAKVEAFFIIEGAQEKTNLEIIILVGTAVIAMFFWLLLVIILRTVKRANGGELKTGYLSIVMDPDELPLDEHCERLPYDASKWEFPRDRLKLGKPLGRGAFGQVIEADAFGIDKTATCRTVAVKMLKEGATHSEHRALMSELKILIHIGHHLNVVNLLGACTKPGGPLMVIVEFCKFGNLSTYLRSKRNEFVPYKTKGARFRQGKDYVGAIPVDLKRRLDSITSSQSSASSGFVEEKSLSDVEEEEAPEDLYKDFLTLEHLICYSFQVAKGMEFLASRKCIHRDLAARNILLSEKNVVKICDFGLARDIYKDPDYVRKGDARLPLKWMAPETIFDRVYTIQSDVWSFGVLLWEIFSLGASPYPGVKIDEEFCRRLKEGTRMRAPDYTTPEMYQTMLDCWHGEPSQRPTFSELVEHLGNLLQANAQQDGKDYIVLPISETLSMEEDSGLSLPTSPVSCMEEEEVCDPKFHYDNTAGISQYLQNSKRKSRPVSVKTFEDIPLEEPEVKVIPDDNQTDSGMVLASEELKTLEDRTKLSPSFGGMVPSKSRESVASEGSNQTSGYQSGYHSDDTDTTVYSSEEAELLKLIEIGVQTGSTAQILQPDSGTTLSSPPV
Form field: IC50 (one value per entry).
ENDPOINT_NAME: IC50

>>> print(df.to_string())
                                    compound          observed
 0  CCN(CC)C(=O)C1CCCN(c2ncnc(Nc3cc(OC)c(OC)c(OC)c3)n2)C1 (stereo not shown)         > 10.1 µM
 1         CN(c1cccc(Cl)c1)c1ncnc(NCCOCCO)n1         > 13.9 µM
 2  COc1cc(Nc2ncnc(-n3nc(-c4ccccc4)cc3N)n2)cc(OC)c1OC         > 10.7 µM
 3  CC(C)(C)c1cc(Nc2ncnc(Nc3ccc(C(N)=O)cc3)n2)[nH]n1   1.14 to 6.81 µM
 4    O=c1[nH]c2ccccc2n1-c1ncnc(Nc2ccccc2)n1         < 1.31 µM
 5  COc1ccc(-c2ncnc(Nc3cc(OC)c(OC)c(OC)c3)n2)cc1OC            < 1 µM
 6  CN1CCN(Cc2cccc(Nc3ncnc(Nc4cccc5ccccc45)n3)c2)CC1         > 10.6 µM
 7  COc1cc(Nc2ncnc(Nc3cc(-c4cccc(C(F)(F)F)c4)n[nH]3)n2)cc(OC)c1OC  0.821 to 4.92 µM
 8        Clc1ncnc(Nc2cc(-c3ccccc3)n[nH]2)n1         > 16.5 µM
 9  COc1cc(Nc2ncnc(Nc3cc(-c4ccc(C(=O)O)cc4)n[nH]3)n2)cc(OC)c1OC  0.863 to 5.18 µM
10  COc1cc(Nc2ncnc(NC3CC3c3ccccc3)n2)cc(OC)c1OCCN1CCOCC1 (stereo not shown)  0.812 to 4.87 µM
11   CN(c1cccc(Cl)c1)c1ncnc(Nc2cccc(Br)c2)n1         > 11.5 µM
12  COc1ccc(Nc2ncnc(Nc3cc(OC)c(OC)c(OC)c3)n2)cc1OCCN1CCOCC1   4.68 to 6.83 µM
13  COc1cc(Nc2ncnc(Nc3cc(-c4cccc(C)c4)n[nH]3)n2)cc(OC)c1OC  0.923 to 5.54 µM
14  CN(c1cccc(Cl)c1)c1ncnc(Nc2ccc3cn[nH]c3c2)n1         > 12.8 µM
15  N#CCc1ccc(Nc2ncnc(Nc3ccc4c(cnn4Cc4ccccc4)c3)n2)cc1  0.925 to 5.55 µM
16  Brc1cccc(Nc2ncnc(Nc3ccc4c(cnn4Cc4ccccc4)c3)n2)c1  0.847 to 5.08 µM
17  COc1cc(Nc2ncnc(Nc3ccc4c(cnn4C)c3)n2)cc(OC)c1OC  0.982 to 5.89 µM
18  O=c1[nH]c2ccccc2n1-c1ncnc(Nc2cc(C(F)(F)F)cc(C(F)(F)F)c2)n1         > 10.2 µM
19  CN(C)c1ccc(Nc2ncnc(-n3c(N)nc4ccccc43)n2)cc1         < 1.15 µM
20  COc1cc(Nc2ncnc(-c3cccnc3NCCCN)n2)cc(OC)c1OC  0.972 to 5.83 µM
21  c1ccc(CCNc2ncnc(Nc3ccc4c(cnn4Cc4ccccc4)c3)n2)cc1  0.949 to 5.69 µM
22  COC(=O)Cc1cccc(Nc2ncnc(Nc3cccc(Br)c3)n2)c1   5.79 to 8.45 µM
23  COc1ccc2c(c1)CCCN2c1ncnc(Nc2cc(OC)c(OC)c(OC)c2)n1        < 0.945 µM
24  CCC(Nc1nc2ccccc2n1-c1ncnc(Nc2cc(OC)c(OC)c(OC)c2)n1)c1ccccc1 (stereo not shown)        < 0.782 µM
25  CC(C)(C)OC(=O)NCc1cccc(Nc2ncnc(Nc3cc(C(C)(C)C)n[nH]3)n2)c1         > 10.3 µM
26  O=c1[nH]c2ccccc2n1-c1ncnc(Nc2ccc3ncccc3c2)n1   1.13 to 6.75 µM
27       CN(c1cccc(Cl)c1)c1ncnc(Nc2ncccn2)n1         > 14.3 µM
28  COc1cc(Nc2ncnc(-n3c(N)nc4ccccc43)n2)ccc1OCCN1CCOCC1        < 0.865 µM
29  COc1cc(Nc2ncnc(-n3c(NCCc4cccnc4)nc4ccccc43)n2)cc(OC)c1OC        < 0.802 µM
30  COc1cc(Nc2ncnc(-n3c(NCc4ccccn4)nc4ccccc43)n2)cc(OC)c1OC        < 0.826 µM
31  COc1cc(Nc2ncnc(N3CCCc4ccc(C(F)(F)F)cc43)n2)cc(OC)c1OC   7.58 to 9.75 µM
32  COc1cc(Nc2ncnc(Nc3nc4ccccc4s3)n2)cc(OC)c1OC  0.975 to 5.85 µM
33  COc1cc(Nc2ncnc(-n3ncc(-c4ccccc4)c3N)n2)cc(OC)c1OC   5.72 to 8.34 µM

###

target: FGFR1 (Homo sapiens)
Sequence (P11362 22-822, species assumed): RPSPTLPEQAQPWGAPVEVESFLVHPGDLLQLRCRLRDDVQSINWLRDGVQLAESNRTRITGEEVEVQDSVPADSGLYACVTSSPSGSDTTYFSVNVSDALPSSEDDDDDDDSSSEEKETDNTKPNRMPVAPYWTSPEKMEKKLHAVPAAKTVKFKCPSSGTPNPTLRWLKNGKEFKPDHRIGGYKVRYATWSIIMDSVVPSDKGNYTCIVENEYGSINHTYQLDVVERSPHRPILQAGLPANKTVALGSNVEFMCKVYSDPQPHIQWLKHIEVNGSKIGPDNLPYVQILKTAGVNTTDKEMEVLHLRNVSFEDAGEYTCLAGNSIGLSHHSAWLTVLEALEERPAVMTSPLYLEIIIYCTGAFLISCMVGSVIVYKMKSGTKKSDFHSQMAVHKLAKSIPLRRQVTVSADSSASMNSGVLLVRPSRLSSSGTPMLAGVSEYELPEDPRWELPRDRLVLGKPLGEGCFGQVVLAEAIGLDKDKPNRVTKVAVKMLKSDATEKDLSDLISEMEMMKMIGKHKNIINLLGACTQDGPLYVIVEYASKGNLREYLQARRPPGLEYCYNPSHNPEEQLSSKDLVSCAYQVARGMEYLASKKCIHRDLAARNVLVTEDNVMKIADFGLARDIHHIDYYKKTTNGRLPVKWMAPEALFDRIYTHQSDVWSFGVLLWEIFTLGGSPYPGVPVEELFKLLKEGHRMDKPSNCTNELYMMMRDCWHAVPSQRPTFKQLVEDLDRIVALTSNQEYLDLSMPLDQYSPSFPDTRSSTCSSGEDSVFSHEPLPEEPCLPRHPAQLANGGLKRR
Each item that follows carries a reported IC50.
ENDPOINT_NAME: IC50

In [3]: df
Out[3]:
                                   compound  endpoint_name          observed
0  Cc1cccc(Nc2ncnc(N3CCCc4ccc(C(F)(F)F)cc43)n2)c1 [Compound 582]           IC50   1.04 to 6.23 µM
1  COc1cc(Nc2ncnc(-c3c(O)[nH]c4ccc(Cl)cc34)n2)cc(OC)c1OC [Compound 517]           IC50  0.935 to 5.61 µM
2  COc1cc(Nc2ncnc(-n3c(NCc4cccnc4)nc4ccccc43)n2)cc(OC)c1OC [Compound 416]           IC50        < 0.826 µM
3  C=CCNc1cc(-c2ncnc(Nc3cc(OC)c(OC)c(OC)c3)n2)ccn1 [Compound 412]           IC50         > 11.4 µM
4  COc1cc(Nc2ncnc(Nc3cc(OC)c(OC)c(OC)c3)n2)cc(OC)c1 [Compound 86]           IC50         > 10.9 µM
5  COc1cc(Nc2ncnc(Nc3cc(C)c(O)cc3C)n2)cc(OC)c1OC [Compound 94]           IC50         > 11.3 µM
6  COc1cc(Nc2ncnc(Nc3ccc(O)cc3)n2)cc(OC)c1OC [Compound 85]           IC50         < 1.08 µM

###

Recorded IC50 for the following molecules
molecular target: Lck (Homo sapiens, UniProt P06239); construct: Kinases are expressed as either kinase domains or full length constructs; made in house; test: Kinase inhibition assay (33P transfer), Lck; assay type: biochemical; conditions: Table 3, class symbols; read-out: Lck-1
Sequence (P06239 whole entry, species assumed, the tested form may be a part): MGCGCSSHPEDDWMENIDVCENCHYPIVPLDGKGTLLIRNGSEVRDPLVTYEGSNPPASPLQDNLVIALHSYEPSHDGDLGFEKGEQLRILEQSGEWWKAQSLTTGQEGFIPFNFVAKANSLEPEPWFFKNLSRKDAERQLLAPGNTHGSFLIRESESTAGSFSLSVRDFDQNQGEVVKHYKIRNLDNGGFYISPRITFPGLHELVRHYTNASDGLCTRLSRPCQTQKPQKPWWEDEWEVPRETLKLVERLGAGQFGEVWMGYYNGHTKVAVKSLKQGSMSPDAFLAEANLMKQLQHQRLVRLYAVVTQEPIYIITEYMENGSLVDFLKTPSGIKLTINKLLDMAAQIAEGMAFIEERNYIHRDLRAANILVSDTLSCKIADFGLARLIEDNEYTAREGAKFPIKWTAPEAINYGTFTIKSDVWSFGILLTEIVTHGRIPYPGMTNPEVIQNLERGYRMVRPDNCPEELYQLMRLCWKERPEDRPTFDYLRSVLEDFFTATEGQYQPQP
ENDPOINT_NAME: IC50

In [3]: df
Out[3]:
                                    molecule                        study_target          observed
 0  Fc1ccc(CNc2ncnc(Nc3cc(-c4ccco4)n[nH]3)n2)cc1  Lck (Homo sapiens, UniProt P06239)         > 12.8 µM
 1   COc1ccc(Nc2ncnc(NCc3cccc(Cl)c3)n2)cc1OC  Lck (Homo sapiens, UniProt P06239)   1.08 to 6.45 µM
 2  COc1cc(Nc2ncnc(-c3cccnc3NC(C)c3ccccc3)n2)cc(OC)c1OC (stereo not drawn)  Lck (Homo sapiens, UniProt P06239)        < 0.872 µM
 3  COC(=O)c1ccc(-c2cc(Nc3ncnc(NCc4ccccc4OC)n3)[nH]n2)cc1  Lck (Homo sapiens, UniProt P06239)         > 10.4 µM
 4  COc1ccc(Nc2ncnc(Nc3ccc4c(cnn4Cc4ccccc4)c3)n2)cc1  Lck (Homo sapiens, UniProt P06239)         > 10.6 µM
 5  Fc1ccc(CNc2ncccc2-c2ncnc(Nc3cccc(Cn4ccnc4)c3)n2)cc1  Lck (Homo sapiens, UniProt P06239)   0.884 to 5.3 µM
 6  O=C(O)CCc1cccc(Nc2ncnc(Nc3cc(-c4ccco4)[nH]n3)n2)c1  Lck (Homo sapiens, UniProt P06239)   1.02 to 6.13 µM
 7  COc1ccc(Nc2ncnc(Nc3ccc(N4CCCCC4)cc3)n2)cc1OC  Lck (Homo sapiens, UniProt P06239)   0.984 to 5.9 µM
 8  COc1cc(Nc2ncnc(-c3cccnc3NC(C)C)n2)ccc1NC(=O)CCCN1CCNCC1  Lck (Homo sapiens, UniProt P06239)  0.791 to 4.75 µM
 9  COc1cc(Nc2ncnc(-c3cccnc3NC3CCc4ccccc43)n2)cc(OC)c1OC (stereo not drawn)  Lck (Homo sapiens, UniProt P06239)    0.85 to 5.1 µM
10  Cc1ccc2c(c1)CCCN2c1ncnc(NCc2ccc(C(=O)O)cc2)n1  Lck (Homo sapiens, UniProt P06239)           > 12 µM
11  c1ccc(Nc2ncccc2-c2ncnc(Nc3ccc4[nH]ncc4c3)n2)cc1  Lck (Homo sapiens, UniProt P06239)         > 11.8 µM
12  COc1ccc(Nc2ncnc(N(C)c3ccc(C)cc3)n2)cc1OC  Lck (Homo sapiens, UniProt P06239)   1.14 to 6.83 µM
13  COc1ccc(Nc2ncnc(N(C)c3ccc(OC(F)(F)F)cc3)n2)cc1OC  Lck (Homo sapiens, UniProt P06239)    5.7 to 8.31 µM
14  COc1ccc(Nc2ncnc(N(C)C3CCN(Cc4ccccc4)C3)n2)cc1OC (stereo not drawn)  Lck (Homo sapiens, UniProt P06239)         > 10.7 µM
15  FC(F)(F)Sc1cccc(Nc2ncnc(Nc3cc(-c4ccco4)[nH]n3)n2)c1  Lck (Homo sapiens, UniProt P06239)  0.954 to 5.72 µM
16  O=S(=O)(O)c1cccc(Nc2ncnc(Nc3cc(-c4ccco4)[nH]n3)n2)c1  Lck (Homo sapiens, UniProt P06239)   8.76 to 11.3 µM
17  Cc1ccc(Cl)cc1Nc1ncnc(N2c3ccc(F)cc3CCC2C)n1 (stereo not drawn)  Lck (Homo sapiens, UniProt P06239)         > 11.7 µM
